Target: UniProtKB Q9H3N8
Sequence (Q9H3N8 whole entry): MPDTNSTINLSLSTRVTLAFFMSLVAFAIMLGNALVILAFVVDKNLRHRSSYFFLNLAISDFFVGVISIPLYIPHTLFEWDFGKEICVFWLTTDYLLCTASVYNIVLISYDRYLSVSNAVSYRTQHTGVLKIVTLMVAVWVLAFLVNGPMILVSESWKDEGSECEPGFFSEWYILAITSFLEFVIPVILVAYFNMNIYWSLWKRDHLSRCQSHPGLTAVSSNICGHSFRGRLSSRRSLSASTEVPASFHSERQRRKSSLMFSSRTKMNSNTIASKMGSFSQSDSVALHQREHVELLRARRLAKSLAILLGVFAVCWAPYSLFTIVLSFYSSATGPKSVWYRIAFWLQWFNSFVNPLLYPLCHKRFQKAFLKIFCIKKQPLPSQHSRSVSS
Assay: Displacement of [3H]histamine from human histamine H4 receptor expressed in HEK cells
Assay type: cell-based, HEK293
Grouping by measured Ki is done with the following cut points: lower bin (below 10 nM), middle bin (10 nM to below 30 nM), upper bin (30 nM or more)

[[record]]
chemical_string = "CNC1CN(c2nc(N)nc3cc(C(C)C)cnc23)C1"
assayed_system = "UniProtKB Q9H3N8"
class_label = "middle bin"

[[record]]
chemical_string = "CCc1ccc2c(N3CC[C@@H](NC)C3)nc(N)nc2c1"
assayed_system = "UniProtKB Q9H3N8"
class_label = "middle bin"

[[record]]
chemical_string = "CNC1CN(c2nc(N)nc3cc(C(C)(C)C)ccc23)C1"
assayed_system = "UniProtKB Q9H3N8"
class_label = "middle bin"

[[record]]
chemical_string = "Nc1nc(N2CCNCC2)c2ccc(C3CCCC3)cc2n1"
assayed_system = "UniProtKB Q9H3N8"
class_label = "middle bin"

[[record]]
chemical_string = "CN1CCN(c2nc(N)nc3ccccc23)CC1"
assayed_system = "UniProtKB Q9H3N8"
class_label = "upper bin"

[[record]]
chemical_string = "CN[C@@H]1CCN(c2nc(N)nc3cc(C4CC4)ccc23)C1"
assayed_system = "UniProtKB Q9H3N8"
class_label = "middle bin"

[[record]]
chemical_string = "CNC1CN(c2nc(N)nc3cc(C4CC4)ccc23)C1"
assayed_system = "UniProtKB Q9H3N8"
class_label = "lower bin"

[[record]]
chemical_string = "CNC1CN(c2nc(N)nc3cc(C4CCCC4)ccc23)C1"
assayed_system = "UniProtKB Q9H3N8"
class_label = "lower bin"

[[record]]
chemical_string = "CC(C)(C)c1ccc2c(N3CCNCC3)nc(N)nc2c1"
assayed_system = "UniProtKB Q9H3N8"
class_label = "upper bin"

[[record]]
chemical_string = "CCc1ccc2c(N3CC(NC)C3)nc(N)nc2c1"
assayed_system = "UniProtKB Q9H3N8"
class_label = "middle bin"

